Data provenance: the supplement of paper PMC6757056

B1: library; a variant is named by its letters at N, in order (parent)
chain: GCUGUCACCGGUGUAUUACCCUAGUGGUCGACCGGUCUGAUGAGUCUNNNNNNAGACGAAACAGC

Variants of: B1
test description: normalized RNA/DNA level without ligand (relative to sTRSVctl = 100) (log10 (% of sTRSVctl)); ligand: hypoxanthine (xanthine aptamer); higher = less ribozyme self-cleavage, higher mRNA level
assay context: HEK293T, reporter: mCherry (pCS4076), ligand present: no
// values below are reported normalized RNA/DNA level without ligand (log10)
Lab note: jot down the number only; don't add units.

**Query** Any idea what normalized RNA/DNA level without ligand (log10) was measured for GCUGUCACCGGUGUAUUACCCUAGUGGUCGACCGGUCUGAUGAGUCUAUUAACAGACGAAACAGC [AUUAAC] ?
**Result** 1.81

**Query** What would you report for GCUGUCACCGGUGUAUUACCCUAGUGGUCGACCGGUCUGAUGAGUCUGCGGUUAGACGAAACAGC [GCGGUU] ?
**Result** 1.72

**Query** Quick one: GCUGUCACCGGUGUAUUACCCUAGUGGUCGACCGGUCUGAUGAGUCUACGACUAGACGAAACAGC [ACGACU]
**Result** 1.59

**Query** How about GCUGUCACCGGUGUAUUACCCUAGUGGUCGACCGGUCUGAUGAGUCUCGUGACAGACGAAACAGC [CGUGAC] ?
**Result** 1.79

**Query** Same question, GCUGUCACCGGUGUAUUACCCUAGUGGUCGACCGGUCUGAUGAGUCUAGUGGGAGACGAAACAGC [AGUGGG] this time
**Result** 1.54

**Query** Lookup GCUGUCACCGGUGUAUUACCCUAGUGGUCGACCGGUCUGAUGAGUCUGAUCCAAGACGAAACAGC [GAUCCA]
**Result** 1.9

**Query** Try this variant too: GCUGUCACCGGUGUAUUACCCUAGUGGUCGACCGGUCUGAUGAGUCUGCGUACAGACGAAACAGC [GCGUAC]
**Result** 1.33

**Query** Same thing, different variant: GCUGUCACCGGUGUAUUACCCUAGUGGUCGACCGGUCUGAUGAGUCUAGGCCCAGACGAAACAGC [AGGCCC]
**Result** 1.95

**Query** Again, but for GCUGUCACCGGUGUAUUACCCUAGUGGUCGACCGGUCUGAUGAGUCUACGCGAAGACGAAACAGC [ACGCGA]
**Result** 1.29

**Query** Same read-out for GCUGUCACCGGUGUAUUACCCUAGUGGUCGACCGGUCUGAUGAGUCUAAGCUAAGACGAAACAGC [AAGCUA] ?
**Result** 1.68

**Query** Same read-out for GCUGUCACCGGUGUAUUACCCUAGUGGUCGACCGGUCUGAUGAGUCUCACAUGAGACGAAACAGC [CACAUG] ?
**Result** 1.86

**Query** Now consider GCUGUCACCGGUGUAUUACCCUAGUGGUCGACCGGUCUGAUGAGUCUAGUAGAAGACGAAACAGC [AGUAGA] and answer again.
**Result** 1.42

**Query** Could you do the same for GCUGUCACCGGUGUAUUACCCUAGUGGUCGACCGGUCUGAUGAGUCUGGAUGCAGACGAAACAGC [GGAUGC] , please?
**Result** 1.47

**Query** Note, next up: GCUGUCACCGGUGUAUUACCCUAGUGGUCGACCGGUCUGAUGAGUCUUGACUGAGACGAAACAGC [UGACUG]
**Result** 1.77

**Query** Field entry: GCUGUCACCGGUGUAUUACCCUAGUGGUCGACCGGUCUGAUGAGUCUGGUAGGAGACGAAACAGC [GGUAGG]
**Result** 1.29

**Query** Can you check GCUGUCACCGGUGUAUUACCCUAGUGGUCGACCGGUCUGAUGAGUCUUAUAUUAGACGAAACAGC [UAUAUU] next?
**Result** 1.85

**Query** For GCUGUCACCGGUGUAUUACCCUAGUGGUCGACCGGUCUGAUGAGUCUCCGGCAAGACGAAACAGC [CCGGCA] then?
**Result** 1.9

**Query** Another variant: GCUGUCACCGGUGUAUUACCCUAGUGGUCGACCGGUCUGAUGAGUCUGGAUGUAGACGAAACAGC [GGAUGU]
**Result** 1.75

**Query** Similarly, GCUGUCACCGGUGUAUUACCCUAGUGGUCGACCGGUCUGAUGAGUCUAGCUCUAGACGAAACAGC [AGCUCU] ?
**Result** 1.89

**Query** Consider next the variant GCUGUCACCGGUGUAUUACCCUAGUGGUCGACCGGUCUGAUGAGUCUCAGUGCAGACGAAACAGC [CAGUGC] in the same way.
**Result** 1.81

**Query** Follow-up item: GCUGUCACCGGUGUAUUACCCUAGUGGUCGACCGGUCUGAUGAGUCUCGUGGCAGACGAAACAGC [CGUGGC]
**Result** 1.88

**Query** What would you report for GCUGUCACCGGUGUAUUACCCUAGUGGUCGACCGGUCUGAUGAGUCUUCAAGAAGACGAAACAGC [UCAAGA] ?
**Result** 1.54
